target: UniProtKB Q9R1K6; assay: Agonist activity at mouse LPS1/GPR34 transfected in HEK293-A cells co-transfected with AP-TGFalpha assessed as AP-TGFalpha release by TGFalpha shedding assay; type: functional, cell-based; details: hek293-a
Sequence (Q9R1K6 whole entry): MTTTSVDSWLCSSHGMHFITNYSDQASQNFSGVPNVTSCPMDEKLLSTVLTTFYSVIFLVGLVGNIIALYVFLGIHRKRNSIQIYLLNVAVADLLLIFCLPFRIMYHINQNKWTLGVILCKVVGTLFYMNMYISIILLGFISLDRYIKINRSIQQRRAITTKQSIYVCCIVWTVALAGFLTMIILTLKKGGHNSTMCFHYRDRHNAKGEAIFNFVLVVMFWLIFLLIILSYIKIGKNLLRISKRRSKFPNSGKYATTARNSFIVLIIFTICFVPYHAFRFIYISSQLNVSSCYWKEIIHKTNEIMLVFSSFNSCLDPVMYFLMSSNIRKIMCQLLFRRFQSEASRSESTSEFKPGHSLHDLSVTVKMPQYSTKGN
measurement_label: pEC50
Lab note — pEC50 values are minus log10 of concentrations in M.

[ask] Dear colleague, I am looking for the recorded pEC50 of the following molecule: N[C@@H](COP(=O)(O)OCCCOC(=O)CCc1ccccc1OCc1cccc(Oc2ccccc2)c1)C(=O)O
[reply] 6.66

---

Consider the following compounds; for each one, report its EC50.
target: Putative P2Y purinoceptor 10 (Homo sapiens, UniProt O00398); assay: Agonist activity at wildtype N-terminal FLAG-tagged human LPS2/P2Y10 transfected in HEK293-A cells co-transfected with AP-TGFalpha assessed as AP-TGFalpha release by TGFalpha shedding assay; type: functional, cell-based
Sequence (O00398 whole entry): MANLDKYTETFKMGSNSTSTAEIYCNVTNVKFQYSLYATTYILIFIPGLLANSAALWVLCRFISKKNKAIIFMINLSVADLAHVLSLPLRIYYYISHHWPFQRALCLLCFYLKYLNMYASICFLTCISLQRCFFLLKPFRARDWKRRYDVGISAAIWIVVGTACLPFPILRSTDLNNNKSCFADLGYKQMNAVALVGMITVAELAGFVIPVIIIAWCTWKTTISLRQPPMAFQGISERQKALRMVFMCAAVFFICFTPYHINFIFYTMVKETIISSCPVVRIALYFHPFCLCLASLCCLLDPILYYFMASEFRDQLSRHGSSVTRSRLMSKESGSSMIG
The reply should be a number in nM, with the unit left off.

[ask] Form entry - test system: Putative P2Y purinoceptor 10 (Homo sapiens, UniProt O00398); read-out: EC50; compound: CC(C)(C)c1ccc(Oc2ccccc2CCC(=O)OCCCOP(=O)(O)OC[C@H](N)C(=O)O)cc1
[reply] 180

[ask] # query: EC50 | item N[C@@H](COP(=O)(O)OCCCOC(=O)CCc1ccccc1Oc1ccc(C23C[C@H]4C[C@@H](C2)C[C@@H](C3)C4)cc1)C(=O)O | system: Putative P2Y purinoceptor 10 (Homo sapiens, UniProt O00398)
[reply] 170

[ask] Write down the reported EC50 of N[C@@H](COP(=O)(O)OCCCOC(=O)CCc1ccccc1Oc1ccc(-c2ccccc2)cc1)C(=O)O , test system: Putative P2Y purinoceptor 10 (Homo sapiens, UniProt O00398).
[reply] 53

[ask] # get_value(readout= EC50, system= Putative P2Y purinoceptor 10 (Homo sapiens, UniProt O00398)) for Cc1ccc(Oc2ccccc2CCC(=O)OCCCOP(=O)(O)OC[C@H](N)C(=O)O)cc1
[reply] 810
